Values of pKi for Histamine H1 receptor (Homo sapiens, UniProt P35367), collected from a number of published sources:
pKi: −log10 of the molar value.
We'd kindly ask you to apply these pKi classes: low-valued = under 5, mid-valued = from 5 up to 6, high-valued = 6 and over

Examples from the recorded data:
[[record]]
given_smiles = "O=S1(=O)CCC(COc2ccc3c(c2)CCC2(CCN(C4CCC4)CC2)O3)CC1"
system_name = "Histamine H1 receptor (Homo sapiens, UniProt P35367)"
assigned_category = "low-valued"

[[record]]
given_smiles = "CCCCCC(=O)c1ccc(OCCCN2CCN(C(=O)c3sccc3Cl)CC2)cc1"
system_name = "Histamine H1 receptor (Homo sapiens, UniProt P35367)"
assigned_category = "high-valued"

[[record]]
given_smiles = "N[C@@H](C(=O)N1CCN(CCCOc2ccc(C(=O)C3CC3)cc2)CC1)c1ccccc1"
system_name = "Histamine H1 receptor (Homo sapiens, UniProt P35367)"
assigned_category = "mid-valued"

[[record]]
given_smiles = "Cc1cc2c(s1)Nc1ccccc1N=C2N1CC[N+](C)([O-])CC1"
system_name = "Histamine H1 receptor (Homo sapiens, UniProt P35367)"
assigned_category = "high-valued"

[[record]]
given_smiles = "CCC[C@@H](N)C(=O)N1CCN(CCCOc2ccc(C(=O)C3CC3)cc2)CC1"
system_name = "Histamine H1 receptor (Homo sapiens, UniProt P35367)"
assigned_category = "low-valued"

[[record]]
given_smiles = "O=C(NS(=O)(=O)c1ccc(Cl)cc1)N1CCC(N2CCC(Oc3ccc(Cl)c(Cl)c3)CC2)CC1"
system_name = "Histamine H1 receptor (Homo sapiens, UniProt P35367)"
assigned_category = "high-valued"

[[record]]
given_smiles = "CCCCCC(=O)c1ccc(OCCCN2CCN(C(=O)[C@H](N)Cc3ccncc3)CC2)cc1"
system_name = "Histamine H1 receptor (Homo sapiens, UniProt P35367)"
assigned_category = "mid-valued"

[[record]]
given_smiles = "Cc1nc(N)sc1CCCN/C(N)=N/C(=S)N[C@@H](C)c1ccccc1"
system_name = "Histamine H1 receptor (Homo sapiens, UniProt P35367)"
assigned_category = "low-valued"


Band for the recorded pKi of `COc1ccccc1N1CCN(Cc2cc(CN3CCOCC3)c3cccccc2-3)CC1` ? mid-valued

Band for the recorded pKi of `CC1=C(C(=O)NCCCN2CCC(C#N)(c3ccc(F)cc3C#N)CC2)[C@@H](c2ccc(F)c(F)c2)CC(=O)N1C` ? high-valued

Band for the recorded pKi of `c1ccc(OC2CCNCC2)cc1` ? mid-valued

Band for the recorded pKi of `CN[C@@H](C(=O)N1CCN(CCCOc2ccc(C(=O)C3CC3)cc2)CC1)C(C)C` ? low-valued

Band for the recorded pKi of `CCOc1cc(CN2CCC(Nc3nc4cc(S(=O)(=O)N(C)C)ccc4o3)CC2)cc(OCC)c1-n1cccc1` ? mid-valued

Band for the recorded pKi of `CC(=O)Nc1ccc(OCCCCN2CCC(c3noc4cc(F)ccc34)CC2)cc1` ? high-valued

Band for the recorded pKi of `CN1CCC(Oc2ccccc2)CC1` ? high-valued
